experiment: Cmax in ICR(CD-1) mouse at 10 mg/kg, po measured upto 24 hrs by LC-MS/MS analysis; assay type: ADME, organism-based; settings: in vivo

{"sample.smiles": "O=C(NCc1ncccn1)c1csc(-c2ccc(OC(F)F)c(OCC3CC3)c2)n1", "readout.unit": "ng/mL", "Cmax": 31}

###

target: 3',5'-cyclic-AMP phosphodiesterase 4D (Homo sapiens); test: Inhibition of recombinant full-length PDE4D2 (unknown origin) using FAM-cAMP as substrate preincubated for 15 mins followed by substrate addition and measured after 30 mins by plate reader assay
pIC50: −log10 of the molar value.
measured.metric: pIC50

{"sample.smiles": "O=C(NCc1c(F)cc(F)cc1F)c1csc(-c2ccc(OC(F)F)c(OCC3CC3)c2)n1", "measured.metric": "pIC50", "readout.number": 7.59}
{"sample.smiles": "O=C(NCc1ccccc1)c1csc(-c2ccc(OC(F)F)c(OCC3CC3)c2)n1", "measured.metric": "pIC50", "readout.number": 7.59}
{"sample.smiles": "O=C(NCc1ccccc1)c1cc2nccc(-c3ccc(OC(F)F)c(OCC4CC4)c3)n2n1", "measured.metric": "pIC50", "readout.number": 6.26}
{"sample.smiles": "O=C(NCc1ccc(F)cc1F)c1cc2nccc(-c3ccc(OC(F)F)c(OCC4CC4)c3)n2n1", "measured.metric": "pIC50", "readout.number": 6.25}
{"sample.smiles": "O=C(Nc1ccncc1)c1csc(-c2ccc(OC(F)F)c(OCC3CC3)c2)n1", "measured.metric": "pIC50", "readout.number": 7.11}
{"sample.smiles": "O=C(NCc1cccc(F)c1F)c1csc(-c2ccc(OC(F)F)c(OCC3CC3)c2)n1", "measured.metric": "pIC50", "readout.number": 7.60}
{"sample.smiles": "O=C(NCc1c(F)cccc1F)c1csc(-c2ccc(OC(F)F)c(OCC3CC3)c2)n1", "measured.metric": "pIC50", "readout.number": 8.03}

###

target: 3',5'-cyclic-AMP phosphodiesterase 4D (Homo sapiens, UniProt Q08499); experiment: Inhibition of recombinant full-length PDE4D2 (unknown origin) at 1 uM using FAM-cAMP as substrate preincubated for 15 mins followed by substrate addition and measured after 30 mins by plate reader assay relative to control; settings: time 45.0 min
Sequence (Q08499 whole entry): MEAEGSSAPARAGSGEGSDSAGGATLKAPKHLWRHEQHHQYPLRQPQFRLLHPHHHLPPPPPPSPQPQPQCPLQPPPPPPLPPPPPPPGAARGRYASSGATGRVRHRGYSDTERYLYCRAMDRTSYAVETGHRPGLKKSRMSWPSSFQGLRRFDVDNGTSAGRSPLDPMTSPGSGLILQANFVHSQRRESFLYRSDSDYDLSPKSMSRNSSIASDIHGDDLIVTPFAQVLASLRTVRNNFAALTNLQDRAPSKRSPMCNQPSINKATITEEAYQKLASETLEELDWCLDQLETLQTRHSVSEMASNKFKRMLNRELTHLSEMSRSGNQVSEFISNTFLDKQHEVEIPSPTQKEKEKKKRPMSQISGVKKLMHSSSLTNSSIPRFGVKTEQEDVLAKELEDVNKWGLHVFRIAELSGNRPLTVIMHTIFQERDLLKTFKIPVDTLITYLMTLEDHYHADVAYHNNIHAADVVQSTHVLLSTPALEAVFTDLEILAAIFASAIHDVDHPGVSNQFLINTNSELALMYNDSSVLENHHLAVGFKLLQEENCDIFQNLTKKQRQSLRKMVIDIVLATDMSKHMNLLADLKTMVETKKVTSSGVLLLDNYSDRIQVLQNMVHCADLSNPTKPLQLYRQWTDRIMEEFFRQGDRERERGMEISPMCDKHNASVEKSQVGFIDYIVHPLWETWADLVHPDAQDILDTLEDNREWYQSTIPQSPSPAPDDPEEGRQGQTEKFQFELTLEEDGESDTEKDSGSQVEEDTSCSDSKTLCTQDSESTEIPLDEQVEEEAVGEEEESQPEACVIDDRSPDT
Parameter inhibition: see the listing below.

{"sample.smiles": "O=C(Nc1ccccc1)c1cc2nccc(-c3ccc(OC(F)F)c(OCC4CC4)c3)n2n1", "study.system": "3',5'-cyclic-AMP phosphodiesterase 4D (Homo sapiens, UniProt Q08499)", "inhibition": "89.2%"}
{"sample.smiles": "O=C(NCc1ccc2ccccc2c1)c1cnn2c(-c3ccc(OC(F)F)c(OCC4CC4)c3)ccnc12", "study.system": "3',5'-cyclic-AMP phosphodiesterase 4D (Homo sapiens, UniProt Q08499)", "inhibition": "< 73.1%"}
{"sample.smiles": "O=C(NC1CCCCC1)c1cnn2c(-c3ccc(OC(F)F)c(OCC4CC4)c3)ccnc12", "study.system": "3',5'-cyclic-AMP phosphodiesterase 4D (Homo sapiens, UniProt Q08499)", "inhibition": "< 73.1%"}
{"sample.smiles": "O=C(Nc1ccncc1)c1cnn2c(-c3ccc(OC(F)F)c(OCC4CC4)c3)ccnc12", "study.system": "3',5'-cyclic-AMP phosphodiesterase 4D (Homo sapiens, UniProt Q08499)", "inhibition": "< 73.1%"}
{"sample.smiles": "O=C(NCc1cccc(F)c1F)c1cnn2c(-c3ccc(OC(F)F)c(OCC4CC4)c3)ccnc12", "study.system": "3',5'-cyclic-AMP phosphodiesterase 4D (Homo sapiens, UniProt Q08499)", "inhibition": "< 73.1%"}
{"sample.smiles": "O=C(NCc1cccnc1)c1cnn2c(-c3ccc(OC(F)F)c(OCC4CC4)c3)ccnc12", "study.system": "3',5'-cyclic-AMP phosphodiesterase 4D (Homo sapiens, UniProt Q08499)", "inhibition": "< 73.1%"}

###

target: UniProt Q08499; assay: Inhibition of recombinant full-length PDE4D2 (unknown origin) at 1 uM using FAM-cAMP as substrate preincubated for 15 mins followed by substrate addition and measured after 30 mins by plate reader assay relative to control; conditions: time 45.0 min
Values of inhibition greater than or equal to 60% map to True; values below map to False.

{"sample.smiles": "O=C(Nc1nccs1)c1cc2nccc(-c3ccc(OC(F)F)c(OCC4CC4)c3)n2n1", "discrete.label": "True"}
{"sample.smiles": "O=C(NCc1ccc2ccccc2c1)c1cc2nccc(-c3ccc(OC(F)F)c(OCC4CC4)c3)n2n1", "discrete.label": "False"}
{"sample.smiles": "O=C(Nc1nccs1)c1csc(-c2ccc(OC(F)F)c(OCC3CC3)c2)n1", "discrete.label": "True"}
{"sample.smiles": "O=C(NCC1CCOCC1)c1cc2nccc(-c3ccc(OC(F)F)c(OCC4CC4)c3)n2n1", "discrete.label": "True"}
{"sample.smiles": "Cn1cc(NC(=O)c2cc3nccc(-c4ccc(OC(F)F)c(OCC5CC5)c4)n3n2)cn1", "discrete.label": "False"}
{"sample.smiles": "O=C(Nc1nc2ccccc2s1)c1csc(-c2ccc(OC(F)F)c(OCC3CC3)c2)n1", "discrete.label": "True"}

###

assay: Metabolic stability in dog liver microsomes assessed as half-life preincubated for 2 hrs followed by NADPH regenerating agent addition and measured upto 4 hrs by LC-MS analysis; format: ADME, Canis lupus familiaris, Microsome; conditions: time < 6 hrs
measured.metric: half-life

{"sample.smiles": "O=C(NCc1ncccn1)c1csc(-c2ccc(OC(F)F)c(OCC3CC3)c2)n1", "measured.metric": "half-life", "result": "1.03 h"}

###

experiment: Cytotoxicity against human HaCaT cells incubated for 24 hrs by CCK8 assay; type: toxicity, cell-based
Parameter CC50 at 24 h: see the listing below.
measured.metric: CC50 at 24 h

{"sample.smiles": "O=C(NCc1c(F)cccc1F)c1csc(-c2ccc(OC(F)F)c(OCC3CC3)c2)n1", "result": "> 50 µM"}
{"sample.smiles": "O=C(NCc1ncccn1)c1csc(-c2ccc(OC(F)F)c(OCC3CC3)c2)n1", "result": "> 50 µM"}

###

assay: AUC(0 to infinity) in ICR(CD-1) mouse at 10 mg/kg, po measured upto 24 hrs by LC-MS/MS analysis; type: ADME, organism-based; conditions: in vivo

{"sample.smiles": "O=C(NCc1ncccn1)c1csc(-c2ccc(OC(F)F)c(OCC3CC3)c2)n1", "AUC(0-inf) [ng·h/mL]": 51}

###

assay: AUC(0 to infinity) in ICR(CD-1) mouse at 5 mg/kg, iv measured upto 24 hrs by LC-MS/MS analysis; assay type: ADME, organism-based; conditions: in vivo

{"sample.smiles": "O=C(NCc1ncccn1)c1csc(-c2ccc(OC(F)F)c(OCC3CC3)c2)n1", "AUC(0-inf) (ng·h/mL)": 620}

###

test: Drug concentration in ICR(CD-1) mouse blood at 1.2% administered topically and measured after 1 hr by LC-MS/MS analysis; assay type: ADME, tissue-based; conditions: topical or ocular, route top, read-out: Ct

{"sample.smiles": "O=C(NCc1ncccn1)c1csc(-c2ccc(OC(F)F)c(OCC3CC3)c2)n1", "concentration at 1 h [ng/mL]": 0.34}

###

Parameter IC50: see the listing below.
test system: HaCaT; test: Anti-inflammatory activity against M5 induced human HaCaT cells assessed as reduction in TNFalpha secretion incubated for 24 hrs by ELISA; assay type: functional, cell-based

{"sample.smiles": "O=C(NCc1ncccn1)c1csc(-c2ccc(OC(F)F)c(OCC3CC3)c2)n1", "study.system": "HaCaT", "IC50": "38.6 µM"}
{"sample.smiles": "O=C(NCc1c(F)cccc1F)c1csc(-c2ccc(OC(F)F)c(OCC3CC3)c2)n1", "study.system": "HaCaT", "IC50": "22.6 µM"}

###

assay: Metabolic stability in rat liver microsomes assessed as half-life preincubated for 2 hrs followed by NADPH regenerating agent addition and measured upto 4 hrs by LC-MS analysis; format: ADME, Microsome; conditions: time < 6 hrs

{"sample.smiles": "O=C(NCc1ncccn1)c1csc(-c2ccc(OC(F)F)c(OCC3CC3)c2)n1", "readout.unit": "min", "half-life": 25.3}

###

experiment: Apparent volume of distribution in ICR(CD-1) mouse at 5 mg/kg, iv measured upto 24 hrs by LC-MS/MS analysis; format: ADME, organism-based; settings: in vivo, read-out: Vz
measured.metric: Vd (L/kg)

{"sample.smiles": "O=C(NCc1ncccn1)c1csc(-c2ccc(OC(F)F)c(OCC3CC3)c2)n1", "readout.unit": "L/kg", "readout.number": 3.12}

###

assay: Half-life in ICR(CD-1) mouse at 10 mg/kg, po measured upto 24 hrs by LC-MS/MS analysis; format: ADME, organism-based; details: in vivo

{"sample.smiles": "O=C(NCc1ncccn1)c1csc(-c2ccc(OC(F)F)c(OCC3CC3)c2)n1", "readout.unit": "h", "half-life": 2.21}

###

biological target: 3',5'-cyclic-AMP phosphodiesterase 4D (Homo sapiens, UniProt Q08499); test: Inhibition of recombinant full-length PDE4D2 (unknown origin) at 1 uM using FAM-cAMP as substrate preincubated for 15 mins followed by substrate addition and measured after 30 mins by plate reader assay relative to control; settings: time 45.0 min
Parameter inhibition: see the listing below.

{"sample.smiles": "O=C(NCc1cc(F)ccc1F)c1cc2nccc(-c3ccc(OC(F)F)c(OCC4CC4)c3)n2n1", "inhibition": "42.6%"}
{"sample.smiles": "O=C(NC1CC1)c1cnn2c(-c3ccc(OC(F)F)c(OCC4CC4)c3)ccnc12", "inhibition": "< 73.1%"}
{"sample.smiles": "O=C(Nc1ccc2cc[nH]c2c1)c1cnn2c(-c3ccc(OC(F)F)c(OCC4CC4)c3)ccnc12", "inhibition": "< 73.1%"}
{"sample.smiles": "O=C(O)c1csc(-c2ccc(OC(F)F)c(OCC3CC3)c2)n1", "inhibition": "78.5%"}
{"sample.smiles": "O=C(NCc1ccc(F)cc1F)c1cnn2c(-c3ccc(OC(F)F)c(OCC4CC4)c3)ccnc12", "inhibition": "< 73.1%"}
{"sample.smiles": "O=C(NCc1cccc(F)c1F)c1cc2nccc(-c3ccc(OC(F)F)c(OCC4CC4)c3)n2n1", "inhibition": "64.6%"}
{"sample.smiles": "O=C(NCc1ccc2ccccc2c1)c1csc(-c2ccc(OC(F)F)c(OCC3CC3)c2)n1", "inhibition": "78%"}
{"sample.smiles": "Cn1cc(NC(=O)c2cnn3c(-c4ccc(OC(F)F)c(OCC5CC5)c4)ccnc23)cn1", "inhibition": "< 73.1%"}
{"sample.smiles": "COc1ccc(CNC(=O)c2cnn3c(-c4ccc(OC(F)F)c(OCC5CC5)c4)ccnc23)cn1", "inhibition": "< 73.1%"}
